assay: Solubility of compound of Chemical Formula 1 in various solvents; format: physicochemical; conditions: aqueous with cosolvent or surfactant or cyclodextrin; MeOH/water = 1:1 (v/v), 25° C.; read-out: Solubility

{"CHEMICAL SMILES": "O=S1(=O)CCN(Cc2cc(NC3CCOCC3)c3[nH]c(-c4ccccc4)cc3c2)CC1", "solubility (µg/mL)": 30}

###

test: Physicochemical stability test of free form and 5 salts (60° C., 40° C./75% humidity, light); details: Dark control
Reported Purity change is given for each of the following compounds.
TEST READOUT: Purity change (%)

{"COMPOUND": "Cc1ccc(S(=O)(=O)O)cc1.O=S1(=O)CCN(Cc2cc(NC3CCOCC3)c3[nH]c(-c4ccccc4)cc3c2)CC1 [Tosylate]", "TEST READOUT": "Purity change", "UNIT SYMBOL": "%", "DATA VALUE": "−0.03"}
{"COMPOUND": "CS(=O)(=O)O.O=S1(=O)CCN(Cc2cc(NC3CCOCC3)c3[nH]c(-c4ccccc4)cc3c2)CC1 [Mesylate]", "TEST READOUT": "Purity change", "UNIT SYMBOL": "%", "DATA VALUE": 0}

###

experiment: Solubility test of sulfate (Crystalline form III) in various solvents; assay type: physicochemical; conditions: organic solvent or mixture, thermodynamic from solid; NMP, 25° C.; read-out: Solubility

{"COMPOUND": "O=S1(=O)CCN(Cc2cc(NC3CCOCC3)c3[nH]c(-c4ccccc4)cc3c2)CC1 [Sulfate]", "solubility": "156 to 208 mg/mL"}

###

Assay: Solubility of compound of Chemical Formula 1 in various solvents
Assay type: physicochemical
Conditions: Water, 25° C.; read-out: Solubility
Description: Very low solubility in various solvents adversely affects pharmaceutical development that requires the production of a finished product in a completely dissolved state.

{"COMPOUND": "O=S1(=O)CCN(Cc2cc(NC3CCOCC3)c3[nH]c(-c4ccccc4)cc3c2)CC1 [compound of Chemical Formula 1]", "solubility": "1 µg/mL"}

###

assay: Solubility of compound of Chemical Formula 1 in various solvents; format: physicochemical; conditions: organic solvent or mixture; Tetrahydrofuran (THF), 25° C.; read-out: Solubility
TEST READOUT: solubility (mg/mL)

{"MOLECULE": "O=S1(=O)CCN(Cc2cc(NC3CCOCC3)c3[nH]c(-c4ccccc4)cc3c2)CC1 [compound of Chemical Formula 1]", "TEST READOUT": "solubility", "DATA VALUE": 17.4}

###

experiment: Solubility test of sulfate (Crystalline form III) in various solvents; assay type: physicochemical; settings: organic solvent or mixture, thermodynamic from solid; MEK, 25° C.; read-out: Solubility

{"COMPOUND": "O=S1(=O)CCN(Cc2cc(NC3CCOCC3)c3[nH]c(-c4ccccc4)cc3c2)CC1 [Sulfate]", "solubility": "< 2000 µg/mL"}

###

experiment: Solubility test of sulfate (Crystalline form III) in various solvents; format: physicochemical; settings: organic solvent or mixture, thermodynamic from solid; MIBK, 25° C.; read-out: Solubility

{"MOLECULE": "O=S1(=O)CCN(Cc2cc(NC3CCOCC3)c3[nH]c(-c4ccccc4)cc3c2)CC1 [Sulfate]", "solubility": "< 2000 µg/mL"}

###

experiment: Solubility test of sulfate (Crystalline form III) in various solvents; type: physicochemical; conditions: aqueous with cosolvent or surfactant or cyclodextrin, thermodynamic from solid; Acetone-H2O (1:2), 50° C.; read-out: Solubility
TEST READOUT: solubility

{"COMPOUND": "O=S1(=O)CCN(Cc2cc(NC3CCOCC3)c3[nH]c(-c4ccccc4)cc3c2)CC1 [Sulfate]", "TEST READOUT": "solubility", "DATA VALUE": "37 to 75 mg/mL"}
